assay: Solubility study of Form A in buffers, water and biorelevant media (suspension shaken 24 hours at 25° C., filtrate by UPLC); format: physicochemical; conditions: pH 3.0 buffer, 25 °C, pH 3, aqueous buffer, thermodynamic from solid, about 24 hours, mean ± spread of three replicates
measurement_label: solubility at 24 h (µg/mL)
Express the result in µg/mL but write the number alone.

Fill blank: measured solubility at 24 h of the compound Cc1cc(N2CC3CCC(C2)C3Nc2nc3n(n2)CCCC[C@H]3c2ccc(F)c(F)c2F)ncn1 (stereo partly shown) [Form A] is ____. 5350

* * *

test: Solubility study of Form A in buffers, water and biorelevant media (suspension shaken 24 hours at 25° C., filtrate by UPLC); type: physicochemical; conditions: pH 7.0 buffer, 25 °C, pH 7, aqueous buffer, thermodynamic from solid, about 24 hours, individual replicate
measurement_label: solubility at 24 h
Respond with a number, then the unit of measure.

May I ask what solubility at 24 h has been recorded for Cc1cc(N2CC3CCC(C2)C3Nc2nc3n(n2)CCCC[C@H]3c2ccc(F)c(F)c2F)ncn1 (stereo partly shown) [Form A] ? 7 µg/mL
